Overview of recorded Helicity for various compounds
- ASSAY COMMENT: Circular dichroism helicity
- Type: physicochemical
- CONDITION: CD, MRE222 vs theoretical maximum; PBS (50 mM)/acetonitrile 95:5, pH 7.4, 20 °C; average of three scans
- Procedure: Each purified peptide was dissolved in phosphate buffer (PBS; 50 mM)/acetonitrile (95:5, pH 7.4) and its circular dichroism spectrum was recorded. Circular dichroism: CD spectra were obtained on a Chirascan CD spectrometer at 20 °C (1 mm path length, 260–190 nm, bandwidth 1.0 nm, response time 0.5 s, step resolution 1.0 nm) Each spectrum is the average of three scans. Peptides were dissolved in PBS (50 mM)/acetonitrile (95:5, pH 7.4) at 20 °C. […]
A number alone suffices; assume %.

{"columns": ["COMPOUND", "UOM", "RECORDED NUMBER"],
 "data": [
  ["CC(=O)N[C@@H](CCC(=O)O)C(=O)N[C@H](C(=O)N[C@@H](Cc1ccccc1)C(=O)N[C@@]1(C)CCCC=CCCC[C@@H](OC(=O)[C@H](CCCCN)NC(=O)[C@@H](N)CCCCN)c2cn(nn2)CC[C@@H](C(=O)N[C@@H](CCC(=O)O)C(=O)N[C@@H](CC(N)=O)C(N)=O)NC(=O)[C@H](CC(C)C)NC(=O)[C@H](CC(C)C)NC(=O)[C@H](CCCNC(=N)N)NC(=O)[C@H](Cc2c[nH]c3ccccc23)NC(=O)[C@H](CC(C)C)NC(=O)[C@H](CC(=O)O)NC1=O)[C@@H](C)O [SP2‐K (B)]", "%", 36],
  ["CC(=O)N[C@@H](CCC(=O)O)C(=O)N[C@H](C(=O)N[C@@H](Cc1ccccc1)C(=O)N[C@@]1(C)CCCC=CCCC[C@H](OC(=O)[C@@H](N)CCCCN)c2cn(nn2)CC[C@@H](C(=O)N[C@@H](CCC(=O)O)C(=O)N[C@@H](CC(N)=O)C(N)=O)NC(=O)[C@H](CC(C)C)NC(=O)[C@H](CC(C)C)NC(=O)[C@H](CCCNC(=N)N)NC(=O)[C@H](Cc2c[nH]c3ccccc23)NC(=O)[C@H](CC(C)C)NC(=O)[C@H](CC(=O)O)NC1=O)[C@@H](C)O [SP1 (A)]", "%", 53],
  ["C=CCCC[C@](C)(NC(=O)[C@H](Cc1ccccc1)NC(=O)[C@@H](NC(=O)[C@H](CCC(=O)O)NC(C)=O)[C@@H](C)O)C(=O)N[C@@H](CC(=O)O)C(=O)N[C@@H](CC(C)C)C(=O)N[C@@H](Cc1c[nH]c2ccccc12)C(=O)N[C@@H](CCCNC(=N)N)C(=O)N[C@@H](CC(C)C)C(=O)N[C@@H](CC(C)C)C(=O)N[C@@H](CCN=[N+]=[N-])C(=O)N[C@@H](CCC(=O)O)C(=O)N[C@@H](CC(N)=O)C(N)=O [SP0]", "%", 52],
  ["CC(=O)N[C@@H](CCC(=O)O)C(=O)N[C@H](C(=O)N[C@@H](Cc1ccccc1)C(=O)N[C@@]1(C)CCCC=CCCC[C@H](OC(=O)[C@@H](N)CCCCN)c2cn(nn2)CC[C@@H](C(=O)N[C@@H](CCC(=O)O)C(=O)N[C@@H](CC(N)=O)C(N)=O)NC(=O)[C@H](CC(C)C)NC(=O)[C@H](CC(C)C)NC(=O)[C@H](CCCNC(=N)N)NC(=O)[C@H](Cc2c[nH]c3ccccc23)NC(=O)[C@H](CC(C)C)NC(=O)[C@H](CC(=O)O)NC1=O)[C@@H](C)O [SP1 (B)]", "%", 31]
]}

Could you tell me which Helicity is on file for CC(=O)N[C@@H](CCC(=O)O)C(=O)N[C@H](C(=O)N[C@@H](Cc1ccccc1)C(=O)N[C@@]1(C)CCCC=CCCC[C@@H](OC(=O)[C@@H](N)CCCCN)c2cn(nn2)CC[C@@H](C(=O)N[C@@H](CCC(=O)O)C(=O)N[C@@H](CC(N)=O)C(N)=O)NC(=O)[C@H](CC(C)C)NC(=O)[C@H](CC(C)C)NC(=O)[C@H](CCCNC(=N)N)NC(=O)[C@H](Cc2c[nH]c3ccccc23)NC(=O)[C@H](CC(C)C)NC(=O)[C@H](CC(=O)O)NC1=O)[C@@H](C)O [SP2 (A)] ?
67

Could you tell me which Helicity is on file for CC(=O)N[C@@H](CCC(=O)O)C(=O)N[C@H](C(=O)N[C@@H](Cc1ccccc1)C(=O)N[C@@]1(C)CCCC=CCCC[C@@H](OC(=O)[C@H](CCCCN)NC(=O)[C@@H](N)CCCCN)c2cn(nn2)CC[C@@H](C(=O)N[C@@H](CCC(=O)O)C(=O)N[C@@H](CC(N)=O)C(N)=O)NC(=O)[C@H](CC(C)C)NC(=O)[C@H](CC(C)C)NC(=O)[C@H](CCCNC(=N)N)NC(=O)[C@H](Cc2c[nH]c3ccccc23)NC(=O)[C@H](CC(C)C)NC(=O)[C@H](CC(=O)O)NC1=O)[C@@H](C)O [SP2‐K (A)] ?
65

Could you tell me which Helicity is on file for CC(=O)N[C@@H](CCC(=O)O)C(=O)N[C@H](C(=O)N[C@@H](Cc1ccccc1)C(=O)N[C@@]1(C)CCCC=CCCC[C@H](OC(=O)[C@H](CCCCN)NC(=O)[C@@H](N)CCCCN)c2cn(nn2)CC[C@@H](C(=O)N[C@@H](CCC(=O)O)C(=O)N[C@@H](CC(N)=O)C(N)=O)NC(=O)[C@H](CC(C)C)NC(=O)[C@H](CC(C)C)NC(=O)[C@H](CCCNC(=N)N)NC(=O)[C@H](Cc2c[nH]c3ccccc23)NC(=O)[C@H](CC(C)C)NC(=O)[C@H](CC(=O)O)NC1=O)[C@@H](C)O [SP1‐K (A)] ?
55

The reported measurements were obtained from paper PMC5488175.
